The reported measurements were obtained from patent US20160279215A1.

- study.target: T1, HLA-A*02:01 (human)
- T1 construct: MHC monomers captured on streptavidin plates; the UV-sensitive peptide is cleaved and exchanged with the test peptide; also called peptide-receptive MHC molecules; MHC class I
- assay.procedure: UV ligand-exchange ELISA (anti-b2m); ++++ = exchange yield >=75%
result.type: peptide exchange yield

Example entries and their recorded answers appear below.
| binder | result.type | endpoint.value |
| --- | --- | --- |
| GLDAFRIFL | peptide exchange yield | ≥ 75% |
| GLLDCPIFL | peptide exchange yield | ≥ 75% |
| GLLPSAESIKL | peptide exchange yield | ≥ 75% |
| KLQEKIQEL | peptide exchange yield | ≥ 75% |
| FLLEREQLL | peptide exchange yield | ≥ 75% |

stdin: Any idea what peptide exchange yield was measured for VLLNEILEQV ?
stdout: ≥ 75%
